Kindly state log10 of MIC for each of the entries shown.
Tested on: Escherichia coli
Assay: Antibacterial activity against tolC/rfaC-deficient Escherichia coli harboring ligA251 mutant
Format: functional
Plainly stated, the numbers are log10 of MIC given in µg/mL.

| structure | log10 of MIC |
| --- | --- |
| NC(=O)c1cc2cc(C3CC3)c(C(F)(F)F)nc2nc1N | -0.90 |
| C=Cc1cc2cc(C(N)=O)c(N)nc2nc1C(F)(F)F | -0.90 |
| NC(=O)c1cc2cc(CCc3ccccc3)c(C(F)(F)F)nc2nc1N | 1.51 |
| CCc1cc2cc(C(N)=O)c(N)nc2nc1C(F)(F)F | -0.60 |

Need log10 of MIC for each of these compounds.
1. CC(C)(OCc1ccccc1)c1nc2nc(N)c(C(N)=O)cc2cc1Br
2. NC(=O)c1cc2cc(Br)c(C3CCCC3)nc2nc1N

A:
1: 0.90; 2: 0.60

====

Assay: Terminal half life in mouse at 10 mg/kg, sc
Type: ADME, organism-based
Parameters: dose 10 mg/kg, route subcutaneous
Conditions: in vivo, read-out: beta t1/2 (converted)
observedProperty: half-life (h)
Numbers only, in h.

Q: Please give the documented half-life of "NC(=O)c1cc2cc(Br)c(C(F)(F)F)nc2nc1N"
A: 2.9

====

Assay: Volume of distribution at steady state in rat at 0.1 mg/kg, iv and 1 mg/kg, po
Format: ADME, organism-based
Details: in vivo, read-out: Vdss
observedProperty: Vd (L/kg)
Numbers only, in L/kg.

Q: Look up and report measured Vd for this entry: "NC(=O)c1cc2cc(Br)c(C(F)(F)F)nc2nc1N"
A: 0.71

====

Biological target: Cytochrome P450 2C9 (Homo sapiens)
Sequence (P11712 whole entry): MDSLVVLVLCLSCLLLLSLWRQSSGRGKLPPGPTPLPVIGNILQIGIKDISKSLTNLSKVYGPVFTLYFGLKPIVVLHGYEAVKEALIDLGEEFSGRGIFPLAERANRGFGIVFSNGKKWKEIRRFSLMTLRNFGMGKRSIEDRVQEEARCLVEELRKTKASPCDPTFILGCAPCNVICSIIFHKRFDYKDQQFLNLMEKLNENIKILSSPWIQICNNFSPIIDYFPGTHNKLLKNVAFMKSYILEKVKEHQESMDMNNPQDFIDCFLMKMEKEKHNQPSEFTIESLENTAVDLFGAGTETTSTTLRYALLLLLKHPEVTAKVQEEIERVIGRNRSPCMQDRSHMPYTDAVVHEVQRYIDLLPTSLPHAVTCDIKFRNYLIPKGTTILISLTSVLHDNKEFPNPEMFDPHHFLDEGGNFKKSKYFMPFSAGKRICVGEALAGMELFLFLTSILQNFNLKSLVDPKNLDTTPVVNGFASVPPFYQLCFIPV
observedProperty: IC50

Q: Supply recorded IC50 for "NC(=O)c1cc2cc(Br)c(C(F)(F)F)nc2nc1N" here.
A: > 50 µM
